assay: Rodent Pharmacokinetic Study; details: Wistar, in vivo, po; Wister rat male, P.O, 15 mg/kg
assayEndpoint: Tmax (min)
Give the value in min but do not write min after it.

Please give the documented Tmax of Cl.c1cncc(OCC2CC3CC3N2)c1 (stereo not shown) [Example 1]
15

###

assay: Rodent Pharmacokinetic Study; settings: Wistar, in vivo, po; Wister rat male, P.O, 5 mg/kg
assayEndpoint: Cmax (ng/mL)
Could you give me the number in ng/mL? Just the number is fine.

Provide Cmax value for the following compound: Cl.Cl.Clc1ccc(OCC2CC3CC3N2)cn1 (stereo not drawn)
1910

Could you please provide reported Cmax for Cl.Cl.Clc1cncc(OCC2CC3CC3N2)c1 (stereo not drawn) ? Thanks!
949

Let me know recorded Cmax for Cl.Cl.Clc1ncccc1OCC1CC2CC2N1 (stereo not drawn) , thanks.
921

###

test: Rodent Pharmacokinetic Study; details: Wistar, in vivo, po; Wister rat male, P.O 5 mg/kg vs I.V 5 mg/kg
assayEndpoint: bioavailability
# include the unit after the value

Give a short answer stating reported bioavailability for Cl.Cl.Clc1cncc(OCC2CC3CC3N2)c1 (stereo not drawn) .
50%

Give a short answer stating reported bioavailability for Cl.Cl.Clc1ncccc1OCC1CC2CC2N1 (stereo not drawn) .
54%

Please report the measured bioavailability for Cl.Cl.Clc1ccc(OCC2CC3CC3N2)cn1 (stereo not drawn)
66%

###

target: Human or Rat Nicotinic Acetylcholine α4β2 receptor (UniProt P09483+P12390); assay: Binding assay for Human or Rat Nicotinic Acetylcholine α4β2 receptor ([3H] Cytisine); settings: [3H] Cytisine 2.5 nM; rat brain frontal cortex or recombinant human cDNA expressed in CHO cells; read-out: Ki
Structures can show the parent of a compound that is named as a salt.
Would you kindly list pKi for each of these compounds?
# pKi is unitless: minus log10 of the molar concentration; print number only

Look up and report measured pKi for this entry: CN1C(COc2cncc(Cl)c2)CC2CC21 (stereo not drawn)
9.43

Give the value of pKi reported for the following: CN1C(COc2ccc(F)nc2)CC2CC21 (stereo not drawn)
8.96

For the compound Cc1ncccc1OCC1CC2CC2N1 (stereo not drawn) [Example 3, dihydrochloride] , give its reported pKi.
6.00

Supply recorded pKi for Clc1cncc(OCC2CCC3CC3N2)c1 (stereo not drawn) [Example 20, hydrochloride] here.
6.67

Please list pKi recorded for the compound CN1C(COc2ccc(Cl)nc2)CC2CC21 (stereo not drawn)
8.47

// fetch pKi given entry CN1C(COc2cncc(Br)c2)CC2CC21 (stereo not drawn) [Example 17, dihydrochloride]
8.38

Supply reported pKi belonging to this compound: Cc1ncccc1OCC1CC2CC2N1C (stereo not drawn)
6.64

Dear colleague, please send me the reported pKi for Cl.Cl.Clc1ncccc1OCC1CC2CC2N1 (stereo not drawn) [Example 4, dihydrochloride] when you can.
7.76

Please give the documented pKi of Cl.Cl.Fc1ccc(OCC2CC3CC3N2)cn1 (stereo not drawn) [Example 6, dihydrochloride]
8.41

###

assay: Rodent Pharmacokinetic Study; conditions: Wistar, in vivo, po; Wister rat male, P.O, 5 mg/kg
assayEndpoint: AUC(0-t) (µg·h/mL)
Enter your answer as a number in µg·h/mL; do not include the unit.

Given Cl.Cl.Clc1ccc(OCC2CC3CC3N2)cn1 (stereo not drawn) , respond with its AUC(0-t).
3.51

Could you please provide reported AUC(0-t) for Cl.Cl.Clc1ncccc1OCC1CC2CC2N1 (stereo not drawn) ? Thanks!
2.16

Return the recorded AUC(0-t) value; entry: Cl.Cl.Clc1cncc(OCC2CC3CC3N2)c1 (stereo not drawn)
1.19
